# System: Norovirus GI.8 VLP, capsid protein VP1 (Norovirus GI.8)
# protocolDescription: ELONA
# measurementConditions: 1 uM aptamer, RT
measurementKind: binding signal (T/N ratio)
Report the value in T/N ratio with no unit label.

{"sequence": "AGTATACGTATTACCTGCAGCCACCAGTGTGTTGAGGTTTGAGCACACTGATAGAGTGTCACGATATCTCGGAGATCTTGC [SMV-19]", "units": "T/N ratio", "measuredResult": 1.7}
{"sequence": "AGTATACGTATTACCTGCAGCCATCTGTGTGAAGACTATATGGCGCTCACATATTTCTTTCCGATATCTCGGAGATCTTGC [SMV-25]", "units": "T/N ratio", "measuredResult": 6.2}

Given the sequence AGTATACGTATTACCTGCAGCTGACCGAGTGTCTGGTCATTTTCGATGTCTGTTGTTAGGCCGATATCTCGGAGATCTTGC [SMV-26] and test system Norovirus GI.8 VLP, capsid protein VP1 (Norovirus GI.8), the measured binding signal is 1.2

Given the sequence AGTATACGTATTACCTGCAGCCCATGTTTTGTAGGTGTAATAGGTCATGTTAGGGTTTCTGCGATATCTCGGAGATCTTGC [SMV-21] and test system Norovirus GI.8 VLP, capsid protein VP1 (Norovirus GI.8), the measured binding signal is 4.6
